Assay: LNP Characteristics (size, PDI, encapsulation efficiency) of LNPs formulated with novel ionizable lipids
Type: physicochemical
Settings: LNP formulated with the ionizable lipid, DOPE, Cholesterol, DMG-PEG2000
Protocol: LNPs formulated using the novel ionizable lipids of the disclosure or control ionizable lipids MC3 and SM-102 were synthesized by mixing the lipid components of the LNP in ethanol at a predetermined molar ratio (ionizable lipid/DOPE/Cholesterol/DMG-PEG2000=30/15/50/1.5) to prepare an organic phase. Sa-mRNA encoding firefly luciferase (LUC) or green fluorescent protein (GFP) was diluted in 50 mM citrate buffer (pH 4.5, Fisher) to prepare an aqueous phase. […]
Assign class by Avg. Encapsulation Efficiency (EE) %: not lower than 90% means Criterion met; lower than 90% means Criterion not met.

compound="CCCCCCCCCCCCOC(=O)CCC(=O)N(C(CCCCCCCCCCC)CCCCCCCCCCC)C(C(=O)NC1CCCCCC1)C1CCN(CC)CC1 (stereo not shown)" class_label="Criterion not met"

Request: Please check the record CCCCCCCCCCCCCC(=O)N(C(CCCCCCCC)CCCCCCCC)C(CC1CCN(C)CC1)C(=O)NC1CCCCCC1 (stereo not shown) and state if its Avg. Encapsulation Efficiency (EE) % is at or above 90%.
Result: Criterion met

Request: Please check the record CCCCCCCCCCCC(=O)N(C(CCCCCCCCCCC)CCCCCCCCCCC)C(CC1CCN(C)CC1)C(=O)NC1CCCCCC1 (stereo not shown) and state if its Avg. Encapsulation Efficiency (EE) % is at or above 90%.
Result: Criterion met

Request: Please check the record CCCCCCCCCCCCC(CCCCCCCCCC)CN(C(=O)CCC(C)C1CCC2C3CC(O)C4CC(O)CCC4(C)C3CCC12C)C(C(=O)NC12CC3CC(CC(C3)C1)C2)C1CCN(CC)CC1 (stereo not shown) and state if its Avg. Encapsulation Efficiency (EE) % is at or above 90%.
Result: Criterion not met

Request: Please check the record CCCCCCCCCCCCCC(=O)N(C(CCCCCCC)CCCCCCC)C(CC1CCN(C)CC1)C(=O)NC1CCCCCC1 (stereo not shown) and state if its Avg. Encapsulation Efficiency (EE) % is at or above 90%.
Result: Criterion met

Request: Please check the record CCCCCCCCCCCCCCCC(=O)N(C(CCCCCCCC)CCCCCCCC)C(C(=O)NC12CC3CC(CC(C3)C1)C2)C1CCN(CC)CC1 (stereo not shown) and state if its Avg. Encapsulation Efficiency (EE) % is at or above 90%.
Result: Criterion not met

* * *

test: LNP Characteristics (size, PDI, encapsulation efficiency) of LNPs formulated with novel ionizable lipids; assay type: physicochemical; details: LNP formulated with the ionizable lipid, DOPE, Cholesterol, DMG-PEG2000
Consider the following molecules; for each one, report its Avg. PDI.
Answers are plain numbers.

// known answers, use as guide
molecule="CCCCCCCCCCCCCCCCCC(=O)N(C(CCCCCCC)CCCCCCC)C(CC1CCN(C)CC1)C(=O)NC1CCCCC1 (centres unmarked)" observed_result=0.11
molecule="CCCCCCCCCCCCOC(=O)CCC(=O)N(C(CCCCCCCCCCC)CCCCCCCCCCC)C(C(=O)NC1CCCCCC1)C1CCN(CC)CC1 (centres unmarked)" observed_result=0.14
molecule="CCCCCCCCCCCCCC(=O)N(C(CCCCCCC)CCCCCCC)C(CC1CCN(C)CC1)C(=O)NC1CCCCCC1 (centres unmarked)" observed_result=0.21

Your task in this section: give Avg. PDI for each listed record.
1. CCCCCCCC/C=C\CCCCCCCC(=O)N(C(CCCCCCCC)CCCCCCCC)C(C(=O)NC1CCCCCC1)C1CCN(CC)CC1 (centres unmarked)
2. CCCCCCCCCCCCCCCC(=O)N(C(CCCCCCC)CCCCCCC)C(C(=O)NC1CCCCC1)C1CCN(CC)CC1 (centres unmarked)

Result:
0.10
0.11

Your task in this section: give Avg. PDI for each listed record.
1. CCCCCCCCCCCC(CCCCCCCCCCC)N(C(=O)CCCCCCCCC)C(C(=O)NC(C)(C)C)C1CCN(CC)CC1 (centres unmarked)
2. CCCCCCCCCCCC(=O)N(C(CCCCCCCCCCC)CCCCCCCCCCC)C(CC1CCN(C)CC1)C(=O)NC1CCCCCC1 (centres unmarked)
3. CCCCCCCCCCCCCCCC(=O)N(C(CCCCCCC)CCCCCCC)C(C(=O)NC12CC3CC(CC(C3)C1)C2)C1CCN(CC)CC1 (centres unmarked)
4. CCCCCCCCCCCCOC(=O)CCC(=O)N(C(CCCCCCCCC)CCCCCCCCC)C(C(=O)NC1CCCCCC1)C1CCN(CC)CC1 (centres unmarked)
5. CCCCCCCCCN(CCCCCCCCC)CCC(=O)N1CN(C(=O)CCN(CCCCCCCCC)CCCCCCCCC)CN(C(=O)CCN(CCCCCCCCC)CCCCCCCCC)C1 [Lipid E2]

Result:
1. 0.10
2. 0.14
3. 0.12
4. 0.07
5. 0.1
